- target.or.system: T1, recombinant soluble murine C4.4a (mouse, UniProt Q91YK8 33-343, limits assumed)
- T1 construct: also called mouse C4.4a; mC4.4a
- T1 sequence (looked up): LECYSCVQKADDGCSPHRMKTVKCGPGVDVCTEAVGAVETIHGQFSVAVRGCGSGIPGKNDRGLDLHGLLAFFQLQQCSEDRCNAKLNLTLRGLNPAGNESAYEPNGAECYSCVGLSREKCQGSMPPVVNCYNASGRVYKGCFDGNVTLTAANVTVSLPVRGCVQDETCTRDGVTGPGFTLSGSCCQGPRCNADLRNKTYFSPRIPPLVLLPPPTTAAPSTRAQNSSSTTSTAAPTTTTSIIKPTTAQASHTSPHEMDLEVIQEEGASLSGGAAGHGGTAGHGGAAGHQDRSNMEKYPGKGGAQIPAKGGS
- experiment.notes: direct ELISA, Fab supernatant on coated mouse C4.4a, signal normalized to Fab quantity
Catalogue of binders with associated normalized affinity signal (average)
Give a plain numeric answer without units written out.

Use these answered entries as a reference point.
INSERT INTO assay_data (binder, value_observed) VALUES
  ('M31-B01 Fab LC P96A (Fab, V domains shown, Fab with 3×HA-tag and hexa-histidine tag at the C-terminus of the heavy chain, culture supernatant) VH: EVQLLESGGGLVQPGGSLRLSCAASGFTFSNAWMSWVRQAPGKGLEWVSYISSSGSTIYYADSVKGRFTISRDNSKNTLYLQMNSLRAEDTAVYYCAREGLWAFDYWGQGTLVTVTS VL: QSVLTQPPSASGTPGQRVTISCTGSSSNIGAGYVVHWYQQLPGTAPKLLIYDNNKRPSGVPDRFSGSKSGTSASLAISGLRSEDEADYYCAAWDDRLNGAVFGGGTKLTVLG', 0.32),
  ('M31-B01 Fab HC Y102W (Fab, V domains shown, Fab with 3×HA-tag and hexa-histidine tag at the C-terminus of the heavy chain, culture supernatant) VH: EVQLLESGGGLVQPGGSLRLSCAASGFTFSNAWMSWVRQAPGKGLEWVSYISSSGSTIYYADSVKGRFTISRDNSKNTLYLQMNSLRAEDTAVYYCAREGLWAFDWWGQGTLVTVTS VL: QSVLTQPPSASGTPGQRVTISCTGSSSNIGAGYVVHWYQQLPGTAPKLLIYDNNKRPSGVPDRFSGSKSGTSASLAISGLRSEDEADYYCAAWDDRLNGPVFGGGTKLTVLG', 0.13),
  ('wild-type Fab M31-B01 (Fab, V domains shown, Fab with 3×HA-tag and hexa-histidine tag at the C-terminus of the heavy chain, E. coli culture supernatant; also called M31-B01 (parental Fab)) VH: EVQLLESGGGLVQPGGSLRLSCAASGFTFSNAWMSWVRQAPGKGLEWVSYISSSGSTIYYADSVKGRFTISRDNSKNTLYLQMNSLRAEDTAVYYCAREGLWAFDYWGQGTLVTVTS VL: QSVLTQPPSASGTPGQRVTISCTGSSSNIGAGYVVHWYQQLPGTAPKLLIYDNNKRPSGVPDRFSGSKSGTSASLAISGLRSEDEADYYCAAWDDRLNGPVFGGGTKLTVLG', 0.13);

### Prompt Give the measured normalized affinity signal (average) for M31-B01 Fab LC W91Y (Fab, V domains shown, Fab with 3×HA-tag and hexa-histidine tag at the C-terminus of the heavy chain, culture supernatant) VH: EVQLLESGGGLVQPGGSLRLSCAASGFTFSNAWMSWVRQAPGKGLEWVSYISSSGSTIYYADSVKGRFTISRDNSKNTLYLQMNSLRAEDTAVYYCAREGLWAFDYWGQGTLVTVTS VL: QSVLTQPPSASGTPGQRVTISCTGSSSNIGAGYVVHWYQQLPGTAPKLLIYDNNKRPSGVPDRFSGSKSGTSASLAISGLRSEDEADYYCAAYDDRLNGPVFGGGTKLTVLG
### Response 2.79

### Prompt Give a short answer stating reported normalized affinity signal (average) for M31-B01 Fab HC Y102K (Fab, V domains shown, Fab with 3×HA-tag and hexa-histidine tag at the C-terminus of the heavy chain, culture supernatant) VH: EVQLLESGGGLVQPGGSLRLSCAASGFTFSNAWMSWVRQAPGKGLEWVSYISSSGSTIYYADSVKGRFTISRDNSKNTLYLQMNSLRAEDTAVYYCAREGLWAFDKWGQGTLVTVTS VL: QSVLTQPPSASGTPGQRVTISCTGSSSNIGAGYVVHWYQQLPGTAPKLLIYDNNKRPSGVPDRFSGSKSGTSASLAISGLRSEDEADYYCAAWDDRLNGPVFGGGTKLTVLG .
### Response 0.21
